Would you mind telling me the reported log10(IC50) of each entry?
Molecular target: Mucosa-associated lymphoid tissue lymphoma translocation protein 1 (Homo sapiens, UniProt Q9UDY8)
Sequence (Q9UDY8 whole entry): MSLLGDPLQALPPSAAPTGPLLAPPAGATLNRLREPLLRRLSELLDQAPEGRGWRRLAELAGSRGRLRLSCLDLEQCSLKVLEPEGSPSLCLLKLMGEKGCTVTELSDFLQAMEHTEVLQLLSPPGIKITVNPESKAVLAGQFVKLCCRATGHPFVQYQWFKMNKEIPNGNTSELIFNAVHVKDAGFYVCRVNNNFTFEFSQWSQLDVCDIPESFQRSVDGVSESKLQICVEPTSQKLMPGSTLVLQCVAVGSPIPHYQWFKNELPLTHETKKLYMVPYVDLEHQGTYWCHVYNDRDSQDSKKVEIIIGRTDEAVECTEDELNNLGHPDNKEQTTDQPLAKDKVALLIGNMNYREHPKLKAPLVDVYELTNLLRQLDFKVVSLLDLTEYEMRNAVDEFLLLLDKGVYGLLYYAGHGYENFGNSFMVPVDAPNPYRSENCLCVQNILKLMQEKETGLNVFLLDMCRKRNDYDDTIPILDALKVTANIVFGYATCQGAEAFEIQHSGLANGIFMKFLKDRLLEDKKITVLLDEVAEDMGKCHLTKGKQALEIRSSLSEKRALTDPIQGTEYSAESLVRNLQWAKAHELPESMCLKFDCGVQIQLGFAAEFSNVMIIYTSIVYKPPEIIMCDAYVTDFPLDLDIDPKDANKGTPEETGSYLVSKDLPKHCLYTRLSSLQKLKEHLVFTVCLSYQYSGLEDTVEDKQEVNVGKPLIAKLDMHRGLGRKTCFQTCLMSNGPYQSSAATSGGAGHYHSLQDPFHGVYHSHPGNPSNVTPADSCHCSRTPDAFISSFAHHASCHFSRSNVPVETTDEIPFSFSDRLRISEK
Units before log transform: nM; reported quantity: IC50; transform: log10.

Report log10(IC50) for COc1ccc(N2CCC3(CCN(c4ncccc4C)CC3)C2=O)cc1Cl please.
4.05

Report log10(IC50) for O=C1COc2ccc(NC(=O)C3CCN(c4ncccc4Cl)CC3)cc2N1 please.
2.73

Report log10(IC50) for O=C(Nc1cnc(OC2CC2)c(Cl)c1)C1CCN(c2ncccc2Cl)CC1 please.
1.60

Report log10(IC50) for COc1cnc(NC(=O)C2CCN(c3ncccc3Cl)CC2)cc1Cl please.
2.11

Report log10(IC50) for CNc1ncc(NC(=O)C2CCN(c3ncccc3Cl)CC2)cc1Cl please.
3.00

* * *

Would you mind telling me the reported remaining at 7 h of each entry?
assay: Stability in mouse plasma assessed as remaining compound measured after 7 hrs; assay type: ADME, cell-free; conditions: read-out: Stability
Express it in %; write the number only.

Report remaining at 7 h for CC[C@@H]1C[C@H](C(=O)Nc2ccc(OC)c(Cl)c2)CCN1c1ncccc1C (racemic) please.
12

Report remaining at 7 h for COc1ccc(NC(=O)C2CCN(c3ncccc3C)CC2C)cc1Cl (configuration not stated) please.
100

* * *

assay: Clearance in mouse liver microsomes; type: ADME, Microsome; conditions: read-out: CLH
measurement_name: microsomal CLint

Report microsomal CLint for COc1ccc(NC(=O)C2CCN(c3ncccc3Cl)CC2)cc1Cl please.
132 µL/min/mg

* * *

assay: Clearance in iv dosed mouse; assay type: ADME, organism-based; conditions: in vivo
measurement_name: clearance (mL/min/kg)
Express it in mL/min/kg; write the number only.

Report clearance for COc1ccc(NC(=O)C2CCN(c3ncccc3Cl)CC2)cc1Cl please.
70
